# credit: patent US20240043547A1

- ASSAY_TARGET: T1, human IL-31-His (human, UniProt Q6EBC2 24-164)
- T1 construct: form captured via anti-His tag antibody in the SPR of the scFvs (sections 1.8 and 2.4); also called hIL-31; not shown: His tag
- T1 sequence (looked up): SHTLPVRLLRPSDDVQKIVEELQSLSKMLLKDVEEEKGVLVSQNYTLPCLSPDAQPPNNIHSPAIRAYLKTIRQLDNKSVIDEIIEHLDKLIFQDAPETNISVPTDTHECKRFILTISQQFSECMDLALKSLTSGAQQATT
- TEST_METHOD_NOTES: SPR (Biacore T200), human IL-31-His captured via anti-His antibody, scFv as analyte
MEASURED_QUANTITY: Kd (nM)
Numbers only here, please. The scale is nM.

Request: Fill in Kd for record PRO1903 (scFv, scFv (VL-linker-VH); variant of PRO1643 with VL D32E (AHo numbering); also called 50-09-D07-sc07; 50-09-D07-5c07) scFv: AFQLTQSPSSLSASVGDRVTITCQASQSIESWLAWYQQKPGKPPKLLIYQASKLASGVPSRFSGSGSGTDYTLTISSLQPEDFATYYCQTYYGGGHIGWGFGTGTKVTVLGGGGGSGGGGSGGGGSGGGGSQSQLVESGGGLVQPGGSLRLSCAASGFSFSANYWICWVRQAPGKGLEWIVCIYIGSRADTYYAPWAKGRFTISKDNSKNTVYLQMNSLRAEDTAVYFCARFSSGIYDLDRFFLWGQGTLVTVSS
Result: 1.22
